# Tested on: primary human total T-cells
# assay summary: T-cell activation assessed by CD69 expression
# Type: cell-based
# measurement conditions: CD3/CD28 stimulation, CD8 T-cells, 1.11 μM, read-out: % CD69+ (CD8)
readout: fold induction at 1.11 µM

Record excerpt, results attached:
                                   compound      result
0  Cn1cnnc1[C@@H]1C[C@@H]1c1cccc(N2Cc3c(ccnc3C(F)(F)F)C2=O)c1 [Compound 369]       ≤ 1.2
1  C[C@H](Cc1nncn1C)c1cccc(N2Cc3c(cc(CN4CC(C)(O)C4)cc3C(F)(F)F)C2=O)c1 [Compound 397]  1.2 to 1.4
2  C[C@@H](c1cc2c(c(C(F)(F)F)c1)CN(c1cccc(C3(Cc4nncn4C)COC3)c1)C2=O)N1CC[C@H](F)C1 [Compound 412]  1.2 to 1.4

Let us examine a further case.
Ask: Entry C[C@H](Cc1nncn1C)c1cccc(NC(=O)c2cccc(CCO)n2)c1 [Compound 202] : reported fold induction at 1.11 µM = ?
Result: ≤ 1.2
